# half-life at 1 μg/mL per entry
experiment description: In-vitro half-life in mouse liver microsomes
Type: in vitro ADME
study conditions: Mouse liver microsomes 0.5 mg/mL; 1 μg/mL drug; NRS; read-out: Metabolic Half-life

Solved entries (count: 5):
[[record]]
molecule = "COc1cc2c(NC3CCOCC3)nc(N3CCC3)nc2cc1OCCCN1CCCC1"
measurement = "> 1 h"

[[record]]
molecule = "COc1cc2c(NC3CCN(C(C)C)CC3)nc(N3CCC3)nc2cc1OCCCN1CCCC1"
measurement = "> 1 h"

[[record]]
molecule = "COc1cc2c(NC3CCS(=O)(=O)CC3)nc(N3CCCC3)nc2cc1OCCCN1CCCC1"
measurement = "> 1 h"

[[record]]
molecule = "COc1cc2c(NC3CCS(=O)(=O)CC3)nc(N3CCN(C)CC3)nc2cc1OCCCN1CCCC1"
measurement = "> 1 h"

[[record]]
molecule = "COc1cc2c(NC3CCN(C(C)C)CC3)nc(-n3ccnc3)nc2cc1OCCCN1CCCC1"
measurement = "0.988 h"


I have this molecule here, `COc1cc2c(NC3CCNCC3)nc(N3CCC(F)(F)CC3)nc2cc1OCCCN1CCCC1` , and I need its recorded half-life at 1 μg/mL.
> 1 h

For `COc1cc2c(N[C@H]3CCCNC3)nc(N3CCCC3)nc2cc1OCCCN1CCCC1` then?
0.637 h

Then what about the molecule `COc1cc2c(NCC3CCN(C)CC3)nc(N3CCC(F)(F)CC3)nc2cc1OCCCN1CCCC1` ?
> 1 h

Okay, and COc1cc2c(NC3CCN(C4CCCCC4)CC3)nc(N3CCCN(C(C)C)CC3)nc2cc1OCCCN1CCCCC1 [Compound 402, reference compound] ?
> 1 h

// query: `COc1cc2c(NC3CCOCC3)nc(N3CCCC3)nc2cc1OCCCN1CCCC1`
> 1 h
